assay: yeast display, Sf9 membrane polyspecificity reagent, FACS + sequencing; frameworks hold sequencing errors
readout.type: polyreactivity (PSR sort gate)

Example entries begin here.
QVQLVESGGGLVQAGGSLRLSCAASGIIFKYYVMGWYRQAPGKERELVAGIRSGGNTYYADSVKGRFTISRDNAKNTVYFQMNSLKPEDTAVYYCNARPQFRFTDSYDYWGQGTQVTVSS = high polyreactivity
QVQLVESGGGLVQAGGSLRLSCAASGRTFVRNAMGWYRQAPGKERELVAAISSSGGSTYYADSVKGRFTISRDNAKNTVYLQMNSLKPEDTAVYYCAAFRIGREYWGQGTQVTVSS = high polyreactivity
QVQLVESGGGLVQAGGSLRLSCAASGSIFVTYAMGWYRQAPGKERELVAAISTSGGSTYADSVKGRFTISRDNAKNTVYLQMNSLKPEDTAVYYCNADDPGYAVPWYWFKYDYWGQGTQVTVSS = low polyreactivity
QVQLVESGGGLVQAGGSLRLSCAASGRTFFLYTIGWYRQAPGKEREFVAAITTIGGSTYYADSVKGRFTISRDNAKNTVSLQMHSLKPEDTAVYYCNARVGPELHDYWGQGTQVTVSS = low polyreactivity
QVHLVESGGGLVQAGGRLRLSCAASGNTFYQYAMGWYRQAPGKERELVAAISSSGGSTYYADTVKGRFTISRDNAKNTVYLQMNSLKPEDTGVYYCATDKWYGYYYWGQGTQVTVSS = low polyreactivity
QVQLVDSGGGLVQAGGSLRLSCAASGAIFEYYAMAWNRQAPGKERELVAAISWSGGSTYYADSVKGRFTISRDNAKNTVYLQMNSLKPEDTAVYYCAADYYLYQVYTGYDYWGQGTQVNVSS = low polyreactivity
QVQLVESGGRLVQAGGSLRLSCAASGRTLSSYVIGWYRQAPGKERELVAAITQSTSRTYYADSVKGRFTISRDNAKNTVYLQMHSLKPEDTAVYYCAAEGRFGRKYGYWGQGTQVTVSS = low polyreactivity
QVQLVESGGGLVQAGGSLRLICAASGFIFNKNAMGWYRQAPGKERELVAAISQIGGTTYYADSVKGRFTISRVNAKNTVYLQMNSLKPEDTSVYYCAASRRVQSDYWGQGTQVTVSS = high polyreactivity

Req: Reported polyreactivity (PSR sort gate) for QVQLVESGGGLVQAGGSLRLSCAASGSIFHIYAIGWYRQAPGKERELVAAISWRGDSTSYADSVKGRFTISRDNAKNTVYLQMNSLKPEDTAVYYCARGYGGYRGYYAKRFGYWGQGTQVTVSS : what is it?
Resp: high polyreactivity

Req: Let us now turn to QDQLVEAGGGLVQAGGSLRKSCAASGRIFNTNAMGWNRQAPGKERELVAGITDSGDSTYYADSVKGRFTISRDNAKNTVYLQMNRLKPEDSAVYYCATDPASPYIYDFWGQGTQVTVSS
Resp: low polyreactivity

Req: Let us now turn to QVQLVESGGGFVQAGGSLRLSCAASGLTFYGYAMGWYRQEPGKERELVAAISGSGARTYYADSVKGRFTISRDNAKNTVYFQMNSLKPEDTAVYYCAVRGSWYSEHNYWGQGTQVTVSS
Resp: high polyreactivity

Req: Another sequence to look at: QVHLVESGGGLVQAGGSLRLSCAASGSLFYYNAMGWYRPAPGKERDLVAAINSNGGSTYYADTVKGRFTISRDNAKNTVYLQMNSLKPEDTAVYSSAAKYYFNWHRQGYDYWGQGTQVTVSS
Resp: high polyreactivity

Req: Continue with QVQLVESGGGLVQAGGSLRLSCAPSGSISQTYAMGWYRQAPGKERELVAAISSSGASTYYADSVKGRFTISRDNAKNTVYLQMNSLKPEDTAVYYCAALGRYRYIYNYWGQGTQVTVSS
Resp: high polyreactivity

Req: Cool, now QVQLVESGGGLVQAGGSLRLSCAASGSTFSSYAMGWYRQAPGKERELVAAINWSGTRTYYADSVKGRFTISRDNAKNTVYLQMNSLKPEDTAVYYCAAVLSLSSRQGVITKGDYWGQGTQVTVSS
Resp: low polyreactivity

Req: Try QVQLVDSGGGLVQAGGSLRLTCAASGIIFYYYAMGWYRQAPGKERELVAAITGTGSRTYYADSVKGRFTISRDNAKNTVYLQMNSLKPEDTAVYYCNARSFATGSKVPARGYWGQGTQVTVSS next.
Resp: high polyreactivity

Req: Try this sequence next: QVQLVESRGGLVQAGGSLRLSCAASGFTFPFYAMGSYRQAPGKERELVAAISISGGSTHYADSVKGRFTISRDNAKNTVYLQMNSLKPEDTAVYYCAAEYGVVIYIDGWYPTLHEYYYSGQGTQVTVSS
Resp: high polyreactivity

Req: Try this sequence too: QVQLVESGGGLVQAGGRLRLICAASGRIFYRNAMGWYRQAPGKERELVAAISYSGGRTYYADSVKGRFTISRDIAKYTVYLQMNRLKPEDTAVYYCAVYGYHEGGYWGQVTQVTVSS
Resp: high polyreactivity

Req: Here is the next sequence: QVQLVDSGGGLVLAGGSLRLSCAASGRTFAYYVMGWYREAPGKERELVAAISGRGGRTNYADSVKGRFTISRDNANNTVFLQMNSLKPEDTAVYYFAADLKLGTFNYWGQGTQVTVSS
Resp: high polyreactivity
